# System: OVCAR-3 ovarian
# test.method.notes: NCI tumour cell line growth inhibition, 48 h
readout.name: TGI

In: Quick one: TGI for "NNC(=O)Nc1nc2ccc(NN)cc2[nH]1" ?
Out: > 100 µM

In: Quick one: TGI for "C/C(CC(=O)Nc1cccc(Cl)c1C)=N\NC(N)=S" ?
Out: > 100 µM

In: Quick one: TGI for "Fc1ccc(-c2ncn(C3CCNCC3)c2-c2ccnc(Oc3ccc4c(c3)OCO4)n2)cc1" ?
Out: > 25 µM

---

Assign TGI to each entry below.
# Test system: COLO 205 colon
# test.method.notes: NCI tumour cell line growth inhibition, 48 h

In: Quick one: TGI for "COc1ccccc1N=Nc1c(-c2ccccc2)nn(C(=O)CC(=O)Nc2cccc(C)c2)c1-c1ccccc1" ?
Out: > 100 µM

In: Quick one: TGI for "Clc1sc(Cl)c2c1[C@@H](Cl)C[C@@H]2Cl" ?
Out: > 100 µM

In: Quick one: TGI for OC1(c2ccccc2)C2CC=CC2C1(c1ccccc1)c1ccccc1 (centres undefined) ?
Out: 44.6 µM

In: Quick one: TGI for O=C(O)C(Cc1cnc[nH]1)N1C(=O)c2ccccc2C1=O (centres undefined) ?
Out: > 100 µM
